Target: chimeric Taq 7-1 (Thermus aquaticus / environmental DNA chimera)
Assay: EMSA
Conditions: EMSA: 3 nM DNA, 20 mM Tris-HCl pH 8.8, 10 mM NaCl, 5 mM MgCl2, 14 mM 2-mercaptoethanol, 0.1 mg/ml BSA, 5% glycerol, 40 C, 5 min; 1% agarose gel
Experimental readout: Kd (nM)
// return numeric value only (unit: nM, not printed)

Short answer for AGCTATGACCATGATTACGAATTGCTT / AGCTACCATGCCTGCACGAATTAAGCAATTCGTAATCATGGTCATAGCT [primed DNA (27mer/49mer)] : Kd was 10

Origin of measurements: paper PMC4153296
